experiment: Phase I study CXR1002-001: plasma pharmacokinetics (LC-MS/MS); format: in vivo, human; conditions: human, plasma, oral, 100 mg, Patient 005 Dose 100 mg; Day 92
MEASURED_ATTRIBUTE: concentration at 92 day (µM)
State just the number; it will be interpreted in µM.

Input: Determine its reported concentration at 92 day: O=C(O)C(F)(F)C(F)(F)C(F)(F)C(F)(F)C(F)(F)C(F)(F)C(F)(F)F
Output: 276

---

experiment: Phase I study CXR1002-001: plasma pharmacokinetics (LC-MS/MS); format: in vivo, human; details: human, plasma, oral, 950 mg, Patient 031, 950 mg, person, plasma, 4 hr; read-out: Concentration
MEASURED_ATTRIBUTE: concentration at 4 h (µM)
State just the number; it will be interpreted in µM.

Input: Determine its reported concentration at 4 h: O=C(O)C(F)(F)C(F)(F)C(F)(F)C(F)(F)C(F)(F)C(F)(F)C(F)(F)F
Output: 336

---

Test: Phase I study CXR1002-001: plasma pharmacokinetics (LC-MS/MS)
Assay type: in vivo, human
Conditions: human, plasma, oral, 750 mg, Patient 026, 750 mg, person, plasma, 864 hr (Day 37); read-out: Concentration
Text: PK samples, PD (fasting) samples, blood glucose, and blood triglyceride samples, were taken over a 6-week period. Dose limiting toxicity (DLT) will be based on the toxicity assessments over the first 3-week period of the repeat dosing schedule. […]
MEASURED_ATTRIBUTE: concentration at 864 h (µM)
State just the number; it will be interpreted in µM.

Input: Determine its reported concentration at 864 h: O=C(O)C(F)(F)C(F)(F)C(F)(F)C(F)(F)C(F)(F)C(F)(F)C(F)(F)F
Output: 812

---

assay: Phase I study CXR1002-001: plasma pharmacokinetics (LC-MS/MS); type: in vivo, human; conditions: human, plasma, oral, 300 mg, Patient 014 Dose 300 mg; 842 hr; read-out: Concentration
MEASURED_ATTRIBUTE: concentration at 842 h

Input: Determine its reported concentration at 842 h: O=C(O)C(F)(F)C(F)(F)C(F)(F)C(F)(F)C(F)(F)C(F)(F)C(F)(F)F
Output: 506 µM

---

assay: Phase I study CXR1002-001: plasma pharmacokinetics (LC-MS/MS); assay type: in vivo, human; conditions: human, plasma, oral, 50 mg, Patient 002 Dose 50 mg; 0.75 hr
MEASURED_ATTRIBUTE: concentration at 0.75 h (µM)
State just the number; it will be interpreted in µM.

Input: Determine its reported concentration at 0.75 h: O=C(O)C(F)(F)C(F)(F)C(F)(F)C(F)(F)C(F)(F)C(F)(F)C(F)(F)F [CXR1002]
Output: 8.39

---

assay: Phase I study CXR1002-001: plasma pharmacokinetics (LC-MS/MS); assay type: in vivo, human; conditions: human, plasma, oral, 50 mg, Patient 004 Dose 50 mg; 842 hr; read-out: Concentration
MEASURED_ATTRIBUTE: concentration at 842 h

Input: Determine its reported concentration at 842 h: O=C(O)C(F)(F)C(F)(F)C(F)(F)C(F)(F)C(F)(F)C(F)(F)C(F)(F)F [CXR1002]
Output: 78.6 µM

---

experiment: Phase I study CXR1002-001: plasma pharmacokinetics (LC-MS/MS); format: in vivo, human; conditions: human, plasma, oral, 300 mg, Patient 014 Dose 300 mg; 170 hr; read-out: Concentration
MEASURED_ATTRIBUTE: concentration at 170 h

Input: Determine its reported concentration at 170 h: O=C(O)C(F)(F)C(F)(F)C(F)(F)C(F)(F)C(F)(F)C(F)(F)C(F)(F)F [CXR1002]
Output: 154 µM
